viability, T/C: recorded values
# System: NCI-H196 complex spheroid growth, percent test/control
# testMethodNotes: Anticancer human tumor NCI-H196 cell line growth inhibition [AhR];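 further: seven days of drug exposure starting three days after plating; 100% = DMSO vehicle control wells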
# testConditions: second compound 10 µM; first compound 10 µM; stronger effect = lower value
# Excerpt: Multicellular complex tumor spheroid response to aryl hydrocarbon receptor antagonists in combination with a variety of drugs and investigational agents in selected tumor cell lines […] Compounds. […] If the clinical Cmax for an agent had not been determined, the highest concentration tested was 10 microM (Table 1). […]

compound | unitInfo | viability, T/C
O=C(c1cc(Cc2n[nH]c(=O)c3ccccc23)ccc1F)N1CCN(C(=O)C2CC2)CC1 + Cc1ccccc1N=Nc1ccc(NC(=O)c2ccnn2C)c(C)c1 | % | 83.4
COc1ccc([C@@H](O)c2cc(-c3ncnc4cc(N5CCOCC5)ccc34)c(F)cc2Cl)nn1 + Cc1cncc(-c2nc(NCCc3c[nH]c4ccccc34)c3ncn(C(C)C)c3n2)c1 | % | 71
NS(=O)(=O)OCC1CC(n2ccc3c(NC4CCc5ccccc54)ncnc32)CC1O (stereo not drawn) + Cc1ccccc1N=Nc1ccc(NC(=O)c2ccnn2C)c(C)c1 | % | 47.4

* * *

# System: NCI-H196 complex spheroid growth, percent test/control
# testMethodNotes: Anticancer human tumor NCI-H196 cell line growth inhibition [AhR];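 further: seven days of drug exposure starting three days after plating; 100% = DMSO vehicle control wells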
# testConditions: second compound 10 µM; first compound 0.03 µM; stronger effect = lower value
Threshold check on viability, T/C: strictly below 90% is condition met; on or above 90% is condition not met.

molecule | assignedClass
CCc1c2c(nc3ccc(O)cc13)-c1cc3c(c(=O)n1C2)COC(=O)[C@]3(O)CC + Cc1ccccc1N=Nc1ccc(NC(=O)c2ccnn2C)c(C)c1 | condition not met
Nc1ncn(C2CC(O)C(CO)S2)c(=O)n1 (stereo unspecified) + Cc1cncc(-c2nc(NCCc3c[nH]c4ccccc34)c3ncn(C(C)C)c3n2)c1 | condition not met
CCN(c1cc(-c2ccc(CN3CCOCC3)cc2)cc(C(=O)NCc2c(C)cc(C)[nH]c2=O)c1C)C1CCOCC1 + Cc1cncc(-c2nc(NCCc3c[nH]c4ccccc34)c3ncn(C(C)C)c3n2)c1 | condition met
O=C(C=Cn1cnc(-c2cc(C(F)(F)F)cc(C(F)(F)F)c2)n1)NNc1cnccn1 + CC(CO)NC(=O)c1cc(-c2ccc(Cl)cc2)nn(-c2cnn(C)c2)c1=O | condition met
Nc1ncn(C2CC(O)C(CO)S2)c(=O)n1 (stereo unspecified) + Cc1ccccc1N=Nc1ccc(NC(=O)c2ccnn2C)c(C)c1 | condition met
O=C(C=Cn1cnc(-c2cc(C(F)(F)F)cc(C(F)(F)F)c2)n1)NNc1cnccn1 + Cc1cncc(-c2nc(NCCc3c[nH]c4ccccc34)c3ncn(C(C)C)c3n2)c1 | condition met

* * *

Measured viability, T/C of individual entries
# Tested on: NCI-H196 complex spheroid growth, percent test/control
# testMethodNotes: Anticancer human tumor NCI-H196 cell line growth inhibition [AhR];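 further: seven days of drug exposure starting three days after plating; 100% = DMSO vehicle control wells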
# testConditions: second compound 0.316 µM; first compound 3.16 µM; stronger effect = lower value
# From the text: Multicellular complex tumor spheroid response to aryl hydrocarbon receptor antagonists in combination with a variety of drugs and investigational agents in selected tumor cell lines […] Compounds. […] If the clinical Cmax for an agent had not been determined, the highest concentration tested was 10 microM (Table 1). […]
readoutKind: viability, T/C (%)

molecule | readoutKind | testResult
NS(=O)(=O)OCC1CC(n2ccc3c(NC4CCc5ccccc54)ncnc32)CC1O (centres undefined) + Cc1cncc(-c2nc(NCCc3c[nH]c4ccccc34)c3ncn(C(C)C)c3n2)c1 | viability, T/C | 58.1
Nc1ccn(C2OC(CO)C(O)C2(F)F)c(=O)n1 (centres undefined) + CC(CO)NC(=O)c1cc(-c2ccc(Cl)cc2)nn(-c2cnn(C)c2)c1=O | viability, T/C | 62
COc1cccc2c1C(=O)c1c(O)c3c(c(O)c1C2=O)CC(O)(C(=O)CO)CC3OC1CC(N)C(O)C(C)O1 (centres undefined) + CC(CO)NC(=O)c1cc(-c2ccc(Cl)cc2)nn(-c2cnn(C)c2)c1=O | viability, T/C | 1.55
O=C(C=Cc1cccc(S(=O)(=O)Nc2ccccc2)c1)NO + CC(CO)NC(=O)c1cc(-c2ccc(Cl)cc2)nn(-c2cnn(C)c2)c1=O | viability, T/C | 28

Every entry's value here was drawn from PubChem BioAssay AID1919016.
